A collection of compounds and their measured IC50
Biological target: UniProt P06276
Experiment: Inhibition of recombinant human BuChE using butyrylthiocholine iodide as substrate preincubated with enzyme for 5 mins followed by substrate addition and measured after 1 min by Ellman's method
REPORTED ENDPOINT: IC50 (nM)

| SMILES DATA | RESULT |
| --- | --- |
| C=CCN(CCc1ccccc1)Cc1cccc(OC)c1OCc1ccccc1 | 400 |
| CCCN(CCc1ccccc1)Cc1cccc(OC)c1OCc1ccccc1 | 500 |
| C=CCN(CCc1cccc(OC)c1)Cc1cccc(OC)c1OCc1ccccc1 | 1500 |
| CCN(CCc1ccc(OC)cc1)Cc1cccc(OC)c1OCc1ccccc1 | 2500 |

----------
Molecular target: Cholinesterase (Homo sapiens)
Assay: Inhibition of recombinant human BuChE using butyrylthiocholine iodide as substrate at 10 uM preincubated with enzyme for 5 mins followed by substrate addition and measured after 1 min by Ellman's method relative to control
Conditions: time 6.0 min
REPORTED ENDPOINT: inhibition (%)

| MOLECULE | REPORTED ENDPOINT | UNIT INFO | RESULT |
| --- | --- | --- | --- |
| C=CCCN(CCCc1ccccc1)Cc1cccc(OC)c1OCc1ccccc1 | inhibition | % | 97 |
| COc1cccc(CNC(C)CCc2ccccc2)c1OCc1ccccc1 (stereo not drawn) | inhibition | % | 97 |
| CCCCCCN(CCCc1ccccc1)Cc1cccc(OC)c1OCc1ccccc1 | inhibition | % | 95 |
| CCCCCCCCCCCCCCN(CCCCc1ccccc1)Cc1cccc(OC)c1OCc1ccccc1 | inhibition | % | 25 |
| CCCN(CCCc1ccc(O)cc1)Cc1cccc(OC)c1OCc1ccccc1 | inhibition | % | 98 |
| C#CCN(CCc1ccccc1)Cc1cccc(OC)c1OCc1ccccc1 | inhibition | % | 46 |
| COc1cccc(CNCc2ccccc2)c1OCc1ccccc1 | inhibition | % | 78 |
| C#CCOc1ccc(CCN(CC#C)Cc2cccc(OC)c2OCc2ccccc2)cc1 | inhibition | % | 72 |
| CCCN(C/C=C/c1ccccc1)Cc1cccc(OC)c1OCc1ccccc1 | inhibition | % | 97 |
| CCCCCCN(CCCCc1ccccc1)Cc1cccc(OC)c1OCc1ccccc1 | inhibition | % | 78 |
| CCN(CCCc1ccccc1)Cc1cccc(OC)c1OCc1ccccc1 | inhibition | % | 98 |
| CCCN(CCc1ccccc1OC)Cc1cccc(OC)c1OCc1ccccc1 | inhibition | % | 92 |
| CCCN(CCCc1cccc(O)c1)Cc1cccc(OC)c1OCc1ccccc1 | inhibition | % | 96 |

----------
Target: Cholinesterase (Homo sapiens, UniProt P06276)
Sequence (P06276 whole entry): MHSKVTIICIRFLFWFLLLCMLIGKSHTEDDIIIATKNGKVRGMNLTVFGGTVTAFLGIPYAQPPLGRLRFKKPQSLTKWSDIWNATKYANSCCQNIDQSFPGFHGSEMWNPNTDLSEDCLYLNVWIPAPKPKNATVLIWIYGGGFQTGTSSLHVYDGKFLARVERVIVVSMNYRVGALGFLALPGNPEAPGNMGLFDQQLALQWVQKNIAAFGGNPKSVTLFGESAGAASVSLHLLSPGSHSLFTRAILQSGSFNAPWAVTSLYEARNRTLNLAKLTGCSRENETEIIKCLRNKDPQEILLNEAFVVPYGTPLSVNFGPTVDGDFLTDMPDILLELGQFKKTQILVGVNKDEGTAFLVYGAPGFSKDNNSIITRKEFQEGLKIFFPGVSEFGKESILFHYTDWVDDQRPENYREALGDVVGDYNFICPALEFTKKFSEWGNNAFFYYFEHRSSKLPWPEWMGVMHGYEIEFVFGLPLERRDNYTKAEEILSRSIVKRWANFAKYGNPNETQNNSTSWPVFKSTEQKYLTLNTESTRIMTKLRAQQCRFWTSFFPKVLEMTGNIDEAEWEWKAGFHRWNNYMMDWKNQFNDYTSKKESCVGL
Assay: Inhibition of recombinant human BuChE using butyrylthiocholine iodide as substrate preincubated with enzyme for 5 mins followed by substrate addition and measured after 1 min by Ellman's method
pIC50: −log10 of the molar value.

| SMILES DATA | READOUT RELATION | pIC50 |
| --- | --- | --- |
| C#CCN(CCc1ccccc1OC)Cc1cccc(OC)c1OCc1ccccc1 | < | 5.00 |
| CCN(CCc1ccccc1OC)Cc1cccc(OC)c1OCc1ccccc1 | = | 6.15 |
| COc1cccc(CNCCCc2ccccc2)c1OCc1ccccc1 | = | 7.05 |
| C#CCN(CCc1ccccc1)Cc1cccc(OC)c1OCc1ccccc1 | < | 5.00 |
| CCN(CCCc1ccccc1)Cc1cccc(OC)c1OCc1ccccc1 | = | 7.22 |
| CCCN(CCc1cccc(OC)c1)Cc1cccc(OC)c1OCc1ccccc1 | = | 6.05 |
| C=CCN(CCCc1ccccc1)Cc1cccc(OC)c1OCc1ccccc1 | = | 7.40 |
| COc1ccc(CCN(C)Cc2cccc(OC)c2OCc2ccccc2)cc1 | = | 5.49 |
| CCCN(CCc1ccccc1OC)Cc1cccc(OC)c1OCc1ccccc1 | = | 6.15 |
| CCCN(CCc1ccc(O)cc1)Cc1cccc(OC)c1OCc1ccccc1 | = | 7.05 |
| C#CCN(CCc1ccc(OCC=C)cc1)Cc1cccc(OC)c1OCc1ccccc1 | < | 5.00 |
| C#CCN(CCc1ccc(O)cc1)Cc1cccc(OC)c1OCc1ccccc1 | = | 5.72 |
| C#CCN(CCc1ccc(OC)cc1)Cc1cccc(OC)c1OCc1ccccc1 | = | 5.89 |
| CCCN(CCCc1ccccc1O)Cc1cccc(OC)c1OCc1ccccc1 | = | 6.66 |
| CCCCCCN(CCCCc1ccccc1)Cc1cccc(OC)c1OCc1ccccc1 | = | 6.15 |
| COc1cccc(CNCCCCc2ccccc2)c1OCc1ccccc1 | = | 6.70 |
| C=CCCN(CCCc1ccccc1)Cc1cccc(OC)c1OCc1ccccc1 | = | 7.15 |
| C#CCN(CCc1cccc(OC)c1)Cc1cccc(OC)c1OCc1ccccc1 | < | 5.00 |
| CCCN(C/C=C/c1ccccc1)Cc1cccc(OC)c1OCc1ccccc1 | = | 7.40 |
| CCCCCCCCCCCCCCN(CCCCc1ccccc1)Cc1cccc(OC)c1OCc1ccccc1 | < | 5.00 |
| COc1cccc(CCNCc2cccc(OC)c2OCc2ccccc2)c1 | = | 5.60 |
